// data source = patent US11174245B2

# target_entity: EGFR wt (Homo sapiens (Human), UniProt P00533)
# Sequence (P00533 25-1210): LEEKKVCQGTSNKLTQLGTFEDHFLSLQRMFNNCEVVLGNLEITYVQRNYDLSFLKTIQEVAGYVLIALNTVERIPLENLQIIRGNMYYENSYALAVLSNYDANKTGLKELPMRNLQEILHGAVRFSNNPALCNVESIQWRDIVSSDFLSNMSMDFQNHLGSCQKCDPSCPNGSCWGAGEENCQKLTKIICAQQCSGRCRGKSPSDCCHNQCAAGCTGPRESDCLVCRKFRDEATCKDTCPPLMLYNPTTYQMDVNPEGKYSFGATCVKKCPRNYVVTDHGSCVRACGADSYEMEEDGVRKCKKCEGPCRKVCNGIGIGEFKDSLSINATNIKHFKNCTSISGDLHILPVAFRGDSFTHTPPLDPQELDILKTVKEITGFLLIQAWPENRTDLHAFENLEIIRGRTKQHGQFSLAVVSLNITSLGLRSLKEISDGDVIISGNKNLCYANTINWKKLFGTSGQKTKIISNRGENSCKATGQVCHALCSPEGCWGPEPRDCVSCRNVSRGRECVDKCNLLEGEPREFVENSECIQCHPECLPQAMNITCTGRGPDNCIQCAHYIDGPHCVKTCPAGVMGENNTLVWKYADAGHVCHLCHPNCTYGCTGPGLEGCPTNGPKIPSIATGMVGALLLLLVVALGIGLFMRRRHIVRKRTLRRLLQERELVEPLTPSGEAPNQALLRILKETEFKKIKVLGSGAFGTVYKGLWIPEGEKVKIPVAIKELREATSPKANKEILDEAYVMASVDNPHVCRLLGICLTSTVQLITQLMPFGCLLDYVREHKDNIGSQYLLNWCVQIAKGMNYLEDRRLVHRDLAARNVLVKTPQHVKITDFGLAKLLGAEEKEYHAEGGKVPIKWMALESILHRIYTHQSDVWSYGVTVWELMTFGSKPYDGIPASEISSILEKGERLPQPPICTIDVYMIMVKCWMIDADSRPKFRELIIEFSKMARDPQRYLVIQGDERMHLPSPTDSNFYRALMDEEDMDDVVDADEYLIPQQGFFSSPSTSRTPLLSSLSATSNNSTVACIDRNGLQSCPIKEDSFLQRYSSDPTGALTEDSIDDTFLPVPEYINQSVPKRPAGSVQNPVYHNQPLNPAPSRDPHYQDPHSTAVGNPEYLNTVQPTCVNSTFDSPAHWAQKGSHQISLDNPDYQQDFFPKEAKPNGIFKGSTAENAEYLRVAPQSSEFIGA
# protocol_text: Biochemical EGFR inhibition assay (TR-FRET, poly-GT substrate), EGFR wt
# experimental_parameters: read-out: wt (5 μM ATP) IC50; 5 μM ATP
measure: IC50 (nM)

[P] O=C(/N=c1\[nH]c2ccccc2n1[C@H]1CC[C@@H](O)CC1)c1ccnc(-c2ccccc2OC(F)F)c1
[Q] COc1ccccc1-c1cc(C(=O)/N=c2\[nH]c3ccccc3n2[C@H]2CCC[C@@H](O)C2)ccn1
[R] Cn1cc(-c2cc(C(=O)/N=c3\[nH]c4ccccc4n3[C@@H]3CCC[C@H](O)C3)ccn2)cn1
[S] Cn1cc(-c2cc(C(=O)/N=c3\[nH]c4ccccc4n3[C@H]3COC[C@@H](O)C3)ccn2)cn1
[T] Cn1cc(-c2cc(C(=O)/N=c3\[nH]c4ccccc4n3[C@H]3CCC[C@@H](O)C3)ccn2)cn1 [I-126]
Q) Give the ascending ranking of the items by reported IC50. Give the labels in the order specified.
A) Q, P, T, R, S

* * *

# target_entity: EGFR del19 T790M C797S protein in Ba/F3 cells (Homo sapiens, UniProt P00533, C797S/DEL746-750/T790M)
# Sequence (P00533 with tags, fused parts or gaps C797S/DEL746-750/T790M limits assumed): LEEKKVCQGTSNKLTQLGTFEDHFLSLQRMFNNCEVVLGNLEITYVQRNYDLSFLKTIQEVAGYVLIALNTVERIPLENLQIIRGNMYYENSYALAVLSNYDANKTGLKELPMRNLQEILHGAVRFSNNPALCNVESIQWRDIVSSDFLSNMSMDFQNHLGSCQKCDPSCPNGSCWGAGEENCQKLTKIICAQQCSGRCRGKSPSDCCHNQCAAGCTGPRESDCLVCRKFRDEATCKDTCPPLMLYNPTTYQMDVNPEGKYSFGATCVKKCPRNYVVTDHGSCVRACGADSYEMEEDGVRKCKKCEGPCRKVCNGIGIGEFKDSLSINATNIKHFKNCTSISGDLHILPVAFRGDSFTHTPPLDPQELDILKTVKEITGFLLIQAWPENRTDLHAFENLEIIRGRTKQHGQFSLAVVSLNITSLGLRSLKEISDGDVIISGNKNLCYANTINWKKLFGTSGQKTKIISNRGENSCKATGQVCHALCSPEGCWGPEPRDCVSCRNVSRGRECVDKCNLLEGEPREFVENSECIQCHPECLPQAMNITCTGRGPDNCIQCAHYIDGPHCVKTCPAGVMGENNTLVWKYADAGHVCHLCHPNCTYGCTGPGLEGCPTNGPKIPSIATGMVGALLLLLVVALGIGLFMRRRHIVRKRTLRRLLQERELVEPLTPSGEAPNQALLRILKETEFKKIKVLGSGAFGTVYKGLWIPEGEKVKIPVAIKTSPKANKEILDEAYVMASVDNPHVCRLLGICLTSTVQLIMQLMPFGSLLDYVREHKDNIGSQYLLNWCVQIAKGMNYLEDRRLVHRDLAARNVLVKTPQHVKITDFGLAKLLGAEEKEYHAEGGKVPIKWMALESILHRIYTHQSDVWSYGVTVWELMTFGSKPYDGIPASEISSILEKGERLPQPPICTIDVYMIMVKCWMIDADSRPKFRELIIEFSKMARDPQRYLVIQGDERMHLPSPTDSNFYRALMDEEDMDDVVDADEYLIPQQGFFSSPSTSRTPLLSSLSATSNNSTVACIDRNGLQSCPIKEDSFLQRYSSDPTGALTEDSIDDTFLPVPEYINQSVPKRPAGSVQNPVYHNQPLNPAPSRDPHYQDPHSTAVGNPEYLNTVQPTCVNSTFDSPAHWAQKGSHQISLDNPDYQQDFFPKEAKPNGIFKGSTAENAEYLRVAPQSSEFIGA
# protocol_text: pEGFR assay (AlphaScreen Surefire, EGFR Tyr1068 phosphorylation)
# Description: Transduced cells were selected using puromycin. Following selection, IL-3 was withdrawn and IL-3 independent cells cultured. p-EGFR Tyr1068 was determined using the AlphaScreen Surefire pEGF Receptor (Tyr1068) Assay (PerkinElmer, TGRERS). […] Subsequently, 60.000 cells/well in 60 μL were added. Cells were incubated with compound for 4 h at 37° C. […] The mixture was incubated at room temperature with shaking (700 rpm) for 20 min. After centrifugation, 4 μL of the lysate were transferred to Proxiplates. […]
measure: IC50 (nM)

Please review the following examples before continuing.
compound | result_unit | IC50
COc1ccccc1-c1cc(C(=O)/N=c2\[nH]c3ccccc3n2[C@@H]2CCCOC2)ccn1 [I-122] | nM | 2
Cn1cc(-c2cc(C(=O)/N=c3\[nH]c4ccccc4n3[C@H]3CC[C@H](O)CC3)ccn2)cn1 [I-036] | nM | 3
Cc1cc(C(=O)/N=c2\[nH]c3ccccc3n2C2CCCS(=O)(=O)C2)cc(-c2cnn(C)c2)n1 (centres unmarked) [I-217] | nM | 75
COc1ccccc1-c1cc(C(=O)/N=c2\[nH]c3ccccc3n2[C@H]2CCC[C@@H](O)C2)ccn1 [I-118] | nM | 3
COc1cccc(-c2cc(C(=O)/N=c3\[nH]c4ccccc4n3CC(C)(C)O)ccn2)c1 [I-99] | nM | 42

[A] CN(C)Cc1cccc(-c2cc(C(=O)/N=c3\[nH]c4ccccc4n3CC(C)(C)O)ccn2)c1 [I-102]
[B] Cc1ccc2c(c1)[nH]/c(=N\C(=O)c1ccnc(-c3cnn(C)c3)c1)n2[C@H]1CC[C@@H](O)CC1 [I-134]
[C] Cn1cc(-c2cc(C(=O)/N=c3\[nH]c4cc(C5CCCCO5)ccc4n3CC(C)(C)O)ccn2)cn1 (centres unmarked) [I-165]
Q) Sort these compounds on IC50 so the largest reading comes first. Give the labels in the order specified.
A) C, A, B

* * *

# target_entity: EGFR del19 T790M C797S protein in Ba/F3 cells (Homo sapiens, UniProt P00533, C797S/DEL746-750/T790M)
# protocol_text: pEGFR assay (AlphaScreen Surefire, EGFR Tyr1068 phosphorylation)
measure: IC50 (nM)

[A] CN(C)CCOCCNc1ccc2c(c1)[nH]/c(=N\C(=O)c1ccnc(-c3cnn(C)c3)c1)n2CC(C)(C)O
[B] COc1ccccc1-c1cc(C(=O)/N=c2\[nH]c3cc(CN4CC(OC)C4)ccc3n2[C@H]2CC[C@@H](O)CC2)ccn1
[C] CC(=O)N1CCC(c2ccc3c(c2)[nH]/c(=N\C(=O)c2cc(C#N)nc(-c4cnn(C)c4)c2)n3[C@H]2CC[C@@H](O)CC2)CC1
[D] Cc1cc(C(=O)/N=c2\[nH]c3cc(CN4CCN(C)CC4)ccc3n2[C@H]2CCC[C@H](O)C2)cc(-c2cnn(C)c2)n1
[E] Cn1cc(-c2cc(C(=O)/N=c3\[nH]c4ccccc4n3[C@H]3CC[C@@H](O)CC3)cc(N)n2)cn1
Q) Could you please sort these 5 entries by IC50 from high to low? Give the labels in the order specified.
A) A, D, C, B, E
(A: 81 nM, D: 44 nM, C: 5 nM, B: 2 nM, E: 1 nM)

[1] COc1ccccc1-c1cc(C(=O)/N=c2\[nH]c3ccccc3n2CC(C)(C)O)ccn1
[2] Cc1cc(C(=O)/N=c2\[nH]c3ccc(CN4CCOCC4)cc3n2C2CCCCC2)cc(-c2cnn(C)c2)n1
[3] CN(C)C(=O)c1cccc(-c2cc(C(=O)/N=c3\[nH]c4ccccc4n3CC(C)(C)O)ccn2)c1
[4] CN(C)c1cccc(-c2cc(C(=O)/N=c3\[nH]c4ccccc4n3CC(C)(C)O)ccn2)c1
[5] COCCN1CCC(c2ccc3[nH]/c(=N\C(=O)c4cc(C)nc(-c5cnn(C)c5)c4)n(C4CCCCC4)c3c2)CC1
Q) Sort these compounds on IC50 so the largest reading comes first. Give the labels in the order specified.
A) 4, 3, 5, 2, 1
(4: 99 nM, 3: 43 nM, 5: 23 nM, 2: 5 nM, 1: 2 nM)

[A] Cn1cc(-c2cc(C(=O)/N=c3\[nH]c4ccccc4n3C3CCC[S+]([O-])C3)ccn2)cn1 (stereo not drawn)
[B] CC(C)(O)Cn1/c(=N/C(=O)c2ccnc(-c3cnn4ccccc34)c2)[nH]c2ccccc21
[C] COc1ccccc1-c1cc(C(=O)/N=c2\[nH]c3ccccc3n2[C@H]2CC[C@@H](O)CC2)ccn1
Q) Order the entries by their reported IC50, beginning at the minimum. Give the labels in the order specified.
A) C, B, A

[1] Cc1ccncc1-c1cc(C(=O)/N=c2\[nH]c3ccccc3n2CC(C)(C)O)ccn1
[2] COc1ccccc1-c1cc(C(=O)/N=c2\[nH]c3ccccc3n2[C@H]2CCC[C@H](O)C2)ccn1 [I-170]
Q) Decide: 1 or 2 , by lowest recorded IC50. When you have decided, please share the label of that item.
A) 2
(2: 8 nM, 1: 58 nM)
